- System: OATP
- method.notes: Liver partitioning / plasma PK study with and without rifampicin (pan-OATP inhibitor)
- Format: in vivo, cynomolgus monkeys
- experimental.parameters: male, cynomolgus monkey, plasma, with rifampicin 30 mg/kg IV (pan-OATP inhibitor); cynomolgus monkeys, 5 mg/kg oral, Pretreatment with Rifampicin 30 mg/kg
quantity.name: AUC

# input Give AUC only, for "COc1ccccc1[C@H](Cn1c(=O)n(C(C)(C)C(=O)NS(=O)(=O)C2(C)CC2)c(=O)c2c(C)c(-c3ncco3)sc21)O[C@@H]1C[C@H]2CC[C@@H](C1)O2" , using OATP data.
# output 48.5 µM·h

###

Below, each of the compounds is paired with its reported L/P Ratio (2 h) value.
- method.notes: Rat liver/plasma ratio determination
- Type: in vivo, male Sprague-Dawley (SD) rats
- experimental.parameters: male SD rats, single oral dose 5 mg/kg or 10 mg/kg, liver to plasma concentration 2 hours after dosing
// return a plain number; no unit text

Examples with their reported L/P Ratio (2 h) follow.
COc1ccc(F)cc1[C@H](Cn1c(=O)n(C(C)(C)C(=O)NS(=O)(=O)C2(C)CC2)c(=O)c2c(C)c(-n3nccn3)sc21)O[C@@H]1C[C@H]2CC[C@@H](C1)O2 [Example 20] :: 2515
COc1ccccc1[C@H](Cn1c(=O)n(C2(C(=O)NS(=O)(=O)C3(C)CC3)CC2)c(=O)c2c(C)c(-c3ncco3)sc21)O[C@@H]1C[C@H]2CC[C@@H](C1)O2 [Example 12] :: 145

# input Please report the measured L/P Ratio (2 h) for COc1ccccc1[C@H](Cn1c(=O)n(C(C)(C)C(=O)NS(=O)(=O)C2(C)CC2)c(=O)c2c(C)c(-c3ncco3)sc21)O[C@@H]1C[C@H]2CC[C@@H](C1)O2 [Example 1]
# output 520

# input Please report the measured L/P Ratio (2 h) for Cc1c(-c2ncco2)sc2c1c(=O)n(C(C)(C)C(=O)NS(=O)(=O)C1(C)CC1)c(=O)n2C[C@H](O[C@@H]1C[C@H]2CC[C@@H](C1)O2)c1cc(F)ccc1OC(F)F [Example 6]
# output 442

###

- method.notes: Liver partitioning / plasma PK study with and without rifampicin (pan-OATP inhibitor)
- Format: in vivo, cynomolgus monkeys
- experimental.parameters: male, cynomolgus monkey, plasma; cynomolgus monkeys, 5 mg/kg oral, No-Pre-treatment
quantity.name: CL/F (L/h/kg)
Dear colleague, please return just the value in L/h/kg, with no unit written.

# input Please report the measured CL/F for "COc1ccccc1[C@H](Cn1c(=O)n(C(C)(C)C(=O)NS(=O)(=O)C2(C)CC2)c(=O)c2c(C)c(-c3ncco3)sc21)O[C@@H]1C[C@H]2CC[C@@H](C1)O2"
# output 44.9

###

- System: OATP
- method.notes: Liver partitioning / plasma PK study with and without rifampicin (pan-OATP inhibitor)
- Assay type: in vivo, cynomolgus monkeys
- experimental.parameters: male, cynomolgus monkey, plasma, with rifampicin 30 mg/kg IV (pan-OATP inhibitor); cynomolgus monkeys, 5 mg/kg oral, Pretreatment with Rifampicin 30 mg/kg; read-out: Vz/F
quantity.name: Vd/F (L/kg)
Dear colleague, please return just the value in L/kg, with no unit written.

# input Please report the measured Vd/F for "COc1ccccc1[C@H](Cn1c(=O)n(C(C)(C)C(=O)NS(=O)(=O)C2(C)CC2)c(=O)c2c(C)c(-c3ncco3)sc21)O[C@@H]1C[C@H]2CC[C@@H](C1)O2"
# output 0.44

###

Below, each of the compounds is paired with its reported L/P Ratio (24 h) value.
- method.notes: Rat liver/plasma ratio determination
- Format: in vivo, male Sprague-Dawley (SD) rats
- experimental.parameters: male SD rats, single oral dose 5 mg/kg or 10 mg/kg, liver to plasma concentration 24 hours after dosing
// return a plain number; no unit text

Examples with their reported L/P Ratio (24 h) follow.
COc1ccc(F)cc1[C@H](Cn1c(=O)n(C(C)(C)C(=O)NS(=O)(=O)C2(C)CC2)c(=O)c2c(C)c(-n3nccn3)sc21)O[C@@H]1C[C@H]2CC[C@@H](C1)O2 :: 2914
COc1ccccc1[C@H](Cn1c(=O)n(C(C)(C)C(=O)NS(=O)(=O)C2(C)CC2)c(=O)c2c(C)c(-c3ncco3)sc21)O[C@@H]1C[C@H]2CC[C@@H](C1)O2 :: 1526
COc1ccccc1[C@H](Cn1c(=O)n(C2(C(=O)NS(=O)(=O)C3(C)CC3)CC2)c(=O)c2c(C)c(-c3ncco3)sc21)O[C@@H]1C[C@H]2CC[C@@H](C1)O2 :: 136

Would you kindly look at the next entry?
# input Please report the measured L/P Ratio (24 h) for "Cc1c(-c2ncco2)sc2c1c(=O)n(C(C)(C)C(=O)NS(=O)(=O)C1(C)CC1)c(=O)n2C[C@H](O[C@@H]1C[C@H]2CC[C@@H](C1)O2)c1cc(F)ccc1OC(F)F"
# output 1106

###

- method.notes: Liver partitioning / plasma PK study with and without rifampicin (pan-OATP inhibitor)
- Assay type: in vivo, cynomolgus monkeys
- experimental.parameters: male, cynomolgus monkey, plasma; cynomolgus monkeys, 5 mg/kg oral, No-Pre-treatment
quantity.name: AUC (µM·h)
Dear colleague, please return just the value in µM·h, with no unit written.

# input Please report the measured AUC for "COc1ccccc1[C@H](Cn1c(=O)n(C(C)(C)C(=O)NS(=O)(=O)C2(C)CC2)c(=O)c2c(C)c(-c3ncco3)sc21)O[C@@H]1C[C@H]2CC[C@@H](C1)O2"
# output 0.294

###

- method.notes: Liver partitioning / plasma PK study with and without rifampicin (pan-OATP inhibitor)
- Assay type: in vivo, cynomolgus monkeys
- experimental.parameters: male, cynomolgus monkey, plasma; cynomolgus monkeys, 5 mg/kg oral, No-Pre-treatment; read-out: Vz/F
- Method: To further investigate the liver partitioning properties of the compound of Example 1, the compound was co-administered with rifampicin (RIF, pan-OATP inhibitor) in cynomolgus monkeys in vivo and hepatic uptake experiments were performed in monkey hepatocytes in vitro. […] To assess the OATP (organic anion transporting polypeptides)-mediated liver specific delivery of the Example 1 compound, plasma pharmacokinetics (PK) was evaluated in cynomolgus monkeys. […]
quantity.name: Vd/F (L/kg)
Dear colleague, please return just the value in L/kg, with no unit written.

# input Please report the measured Vd/F for COc1ccccc1[C@H](Cn1c(=O)n(C(C)(C)C(=O)NS(=O)(=O)C2(C)CC2)c(=O)c2c(C)c(-c3ncco3)sc21)O[C@@H]1C[C@H]2CC[C@@H](C1)O2 [Example 1]
# output 72.7
